# Tested on: Enterococcus faecalis
# assay_text: ≥ marks a high value that may be exact or a test limit, other limits are often not marked, values filed in µg/mL are converted to µM
measurement_name: MIC (µM)
Just the number please, in µM, no unit attached.

Entry under test: "CC(C)C[C@H](NC(=O)[C@H](Cc1cnc[nH]1)NC(=O)[C@H](Cc1ccccc1)NC(=O)[C@H](Cc1cnc[nH]1)NC(=O)[C@@H](N)Cc1ccccc1)C(=O)N[C@@H](Cc1cnc[nH]1)C(=O)N[C@@H](Cc1ccccc1)C(N)=O" . Its MIC was 16.3

* * *

// Candida albicans ATCC 90028 MIC records
Just the number please, in µM, no unit attached.

Measured on Candida albicans ATCC 90028, CC[C@H](C)[C@H](NC(=O)[C@H](Cc1ccccc1)NC(=O)[C@H](CC(N)=O)NC(=O)[C@H](CCCCN)NC(=O)[C@H](C)NC(=O)[C@@H](NC(=O)[C@H](CC(N)=O)NC(=O)[C@H](Cc1ccccc1)NC(=O)[C@H](C)NC(=O)[C@H](C)NC(=O)[C@H](CCCCN)NC(=O)CNC(=O)[C@H](CCCCN)NC(=O)[C@H](CCCCN)NC(=O)[C@H](CCCCN)NC(=O)[C@H](C)NC(=O)[C@@H](NC(=O)[C@H](CC(=O)O)NC(=O)[C@H](CC(C)C)NC(=O)[C@H](Cc1c[nH]c2ccccc12)NC(=O)CN)C(C)C)C(C)C)C(N)=O [GWLDVAKKKGKAAFNVAKNFI] has a documented MIC of 16

* * *

// Escherichia coli DH5alpha MIC records
Just the number please, in µM, no unit attached.

[
  {
    "molecule": "CC[C@H](C)[C@H](NC(=O)[C@@H](N)Cc1ccccc1)C(=O)N[C@@H](CCCN=C(N)N)C(=O)N[C@@H](CCCCN)C(=O)N[C@@H](Cc1ccccc1)C(=O)N[C@@H](CC(C)C)C(=O)N[C@@H](CCCCN)C(=O)N[C@@H](CCCCN)C(=O)N[C@@H](Cc1c[nH]c2ccccc12)C(=O)N[C@@H](CC(C)C)C(=O)N[C@@H](CC(C)C)C(N)=O [FIRKFLKKWLL]",
    "system_under_test": "Escherichia coli DH5alpha",
    "assay_result": 5.47
  }
]

Attention now turns to another entry.
Measured on Escherichia coli DH5alpha, CC[C@H](C)[C@H](NC(=O)[C@H](CCC(N)=O)NC(=O)[C@@H](NC(=O)CNC(=O)[C@@H](NC(=O)[C@H](CC(C)C)NC(=O)[C@H](CC(C)C)NC(=O)[C@H](Cc1ccccc1)NC(=O)[C@@H]1CCCN1C(=O)[C@@H](N)[C@@H](C)O)C(C)C)[C@@H](C)O)C(=O)N[C@@H](CC(=O)O)C(=O)N[C@@H](CC(C)C)C(=O)N[C@@H](CCCN=C(N)N)C(=O)O [TPFLLVGTQIDLR] has a documented MIC of 2.4

* * *

// Escherichia coli NEB5alpha MIC records

Please review the entries below; each comes with its answer.
[
  {
    "compound": "CC[C@H](C)[C@H](NC(=O)[C@H](C)NC(=O)CNC(=O)[C@H](CCCCN)NC(=O)[C@H](CCC(=O)O)NC(=O)[C@H](CCC(=O)O)NC(=O)[C@H](CC(=O)O)NC(=O)[C@H](CCC(=O)O)NC(=O)[C@H](CC(N)=O)NC(=O)[C@H](CCCN=C(N)N)NC(=O)CNC(=O)[C@H](CCC(N)=O)NC(=O)[C@H](CC(C)C)NC(=O)[C@@H](N)CCCCN)C(=O)N[C@H](C(=O)N[C@@H](CCCCN)C(=O)N[C@H](C(=O)N[C@@H](CCCCN)C(=O)NCC(=O)NCC(=O)N[C@@H](CC(C)C)C(=O)O)C(C)C)C(C)C [KLQGRNEDEEKGAIVKVKGGL]",
    "MIC": "≥ 1000 µM"
  },
  {
    "compound": "CC(C)C[C@H](NC(=O)[C@H](CCCN=C(N)N)NC(=O)[C@H](CC(C)C)NC(=O)[C@H](CC(C)C)NC(=O)[C@H](CCC(N)=O)NC(=O)[C@H](CCC(=O)O)NC(=O)[C@H](CC(C)C)NC(=O)[C@H](Cc1ccc(O)cc1)NC(=O)CNC(=O)[C@@H](N)CC(C)C)C(=O)O [LGYLEQLLRL]",
    "MIC": "≥ 1360 µM"
  }
]

Entry under test: CC[C@H](C)[C@H](NC(=O)[C@H](C)NC(=O)CNC(=O)[C@H](CCCCN)NC(=O)[C@H](CCC(=O)O)NC(=O)[C@H](CCC(=O)O)NC(=O)[C@H](CC(=O)O)NC(=O)[C@H](CCC(=O)O)NC(=O)[C@H](CC(=O)O)NC(=O)[C@H](CCCN=C(N)N)NC(=O)CNC(=O)[C@H](CCC(N)=O)NC(=O)[C@H](CC(C)C)NC(=O)[C@@H](N)CCCCN)C(=O)N[C@H](C(=O)N[C@@H](CCCCN)C(=O)N[C@H](C(=O)N[C@@H](CCCCN)C(=O)NCC(=O)NCC(=O)N[C@@H](CC(C)C)C(=O)O)C(C)C)C(C)C [KLQGRDEDEEKGAIVKVKGGL] . Its MIC was ≥ 500 µM

Entry under test: CC[C@H](C)[C@H](NC(=O)[C@@H](N)CCCN=C(N)N)C(=O)N[C@@H](CCCCN)C(=O)N[C@H](C(=O)N[C@H](C(=O)N[C@H](C(=O)N[C@@H](CO)C(=O)N[C@@H](Cc1ccccc1)C(=O)N[C@@H](CC(=O)O)C(=O)N[C@@H](CC(C)C)C(=O)N1CCC[C@H]1C(=O)N[C@@H](C)C(=O)N[C@@H](CC(C)C)C(=O)N[C@@H](CCCN=C(N)N)C(=O)N[C@@H](Cc1c[nH]c2ccccc12)C(=O)N[C@@H](CC(C)C)C(=O)N[C@@H](CCCCN)C(=O)N[C@@H](CC(C)C)C(=O)O)[C@@H](C)O)C(C)C)[C@@H](C)O [RIKTVTSFDLPALRWLKL] . Its MIC was ≥ 62.5 µM

* * *

Reported values of MIC for individual entries
# System: Pseudomonas aeruginosa ATCC BAA-427
# assay_text: ≥ marks a high value that may be exact or a test limit, other limits are often not marked, values filed in µg/mL are converted to µM
Just the number please, in µM, no unit attached.

[
  {
    "smiles_repr": "CC(C)C[C@H](NC(=O)[C@H](C)NC(=O)[C@H](CCCN=C(N)N)NC(=O)[C@H](CCCN=C(N)N)NC(=O)[C@H](C)NC(=O)[C@H](Cc1c[nH]c2ccccc12)NC(=O)[C@H](CCCCN)NC(=O)[C@H](CCCN=C(N)N)NC(=O)[C@H](C)NC(=O)[C@H](CCCN=C(N)N)NC(=O)[C@H](CCCN=C(N)N)NC(=O)[C@H](C)N)C(=O)N[C@@H](CCCCN)C(=O)N[C@@H](CC(C)C)C(=O)N[C@@H](C)C(N)=O",
    "unit_symbol": "µM",
    "MIC": 6.25
  }
]

Entry under test: "CC[C@H](C)[C@H](NC(=O)[C@H](CCCN=C(N)N)NC(=O)CNC(=O)[C@H](CC(C)C)NC(=O)[C@H](CCCCN)NC(=O)[C@H](CCCCN)NC(=O)[C@H](Cc1c[nH]c2ccccc12)NC(=O)[C@H](Cc1ccccc1)NC(=O)[C@H](CO)NC(=O)[C@H](CCCCN)NC(=O)[C@@H](NC(=O)[C@@H](N)Cc1ccccc1)C(C)C)C(=O)N[C@@H](CC(C)C)C(N)=O" . Its MIC was 6.8

Entry under test: "CC(C)C[C@H](NC(=O)[C@H](CC(=O)O)NC(=O)[C@H](CC(C)C)NC(=O)[C@H](CCCCN)NC(=O)[C@H](CC(C)C)NC(=O)[C@H](CC(=O)O)NC(=O)[C@H](CC(C)C)NC(=O)[C@H](CCCCN)NC(=O)[C@H](CC(C)C)NC(=O)[C@H](CC(=O)O)NC(=O)[C@H](CC(C)C)NC(=O)[C@H](CCCCN)NC(=O)[C@H](CCCN=C(N)N)NC(=O)[C@@H](N)CCCN=C(N)N)C(=O)O" . Its MIC was 10

* * *

# System: Staphylococcus aureus
measurement_name: MIC

[
  {
    "compound": "NC(=O)CC[C@H](NC(=O)[C@H](Cc1c[nH]c2ccccc12)NC(=O)[C@H](Cc1c[nH]c2ccccc12)NC(=O)[C@H](CC(N)=O)NC(=O)[C@H](Cc1ccc(O)cc1)NC(=O)[C@H](Cc1c[nH]c2ccccc12)NC(=O)[C@@H](N)Cc1c[nH]c2ccccc12)C(=O)N[C@@H](CC(=O)O)C(=O)N[C@@H](Cc1c[nH]c2ccccc12)C(N)=O",
    "assay_result": "> 340 µM"
  },
  {
    "compound": "CC[C@H](C)[C@H](NC(=O)[C@H](C)NC(=O)[C@H](CC(C)C)NC(=O)[C@H](CS)NC(=O)[C@H](Cc1cnc[nH]1)NC(=O)[C@H](C)NC(=O)[C@H](C)N)C(=O)NCC(=O)N[C@@H](CCCN=C(N)N)C(=O)N[C@@H](CCCN=C(N)N)C(N)=O [AAHCLAIGRR]",
    "assay_result": "> 60 µM"
  },
  {
    "compound": "CC[C@H](C)[C@H](N)C(=O)N[C@H](C(=O)N[C@H](C(=O)N[C@@H](CS)C(=O)N[C@@H](CCCN=C(N)N)C(=O)N[C@@H](CCCCN)C(=O)N1CCC[C@H]1C(=O)N[C@H](C(=O)N[C@H](C(=O)N[C@@H](CS)C(=O)N[C@@H](CCCN=C(N)N)C(=O)N[C@@H](CCCCN)C(=O)N1CCC[C@H]1C(=O)N[C@H](C(=O)N[C@H](C(=O)N[C@H](C(N)=O)[C@@H](C)CC)[C@@H](C)CC)[C@@H](C)CC)[C@@H](C)CC)[C@@H](C)CC)[C@@H](C)CC)[C@@H](C)CC",
    "assay_result": "> 64 µM"
  },
  {
    "compound": "CC[C@H](C)[C@H](NC(=O)[C@@H](NC(=O)[C@H](Cc1cnc[nH]1)NC(=O)[C@@H](NC(=O)[C@@H](NC(=O)[C@H](CCCCN)NC(=O)[C@H](CCCN=C(N)N)NC(=O)[C@@H](NC(=O)[C@@H](NC(=O)[C@@H](N)CCCN=C(N)N)[C@@H](C)CC)[C@@H](C)CC)[C@@H](C)CC)[C@@H](C)CC)[C@@H](C)CC)C(N)=O",
    "assay_result": "> 15.7 µM"
  }
]

Attention now turns to another entry.
Entry under test: "CC[C@H](C)[C@H](NC(=O)[C@H](Cc1cnc[nH]1)NC(=O)[C@@H](NC(=O)[C@@H](NC(=O)[C@H](CCCCN)NC(=O)[C@H](CCCN=C(N)N)NC(=O)[C@@H](NC(=O)[C@@H](NC(=O)[C@@H](N)CCCN=C(N)N)[C@@H](C)CC)[C@@H](C)CC)[C@@H](C)CC)[C@@H](C)CC)C(=O)N[C@H](C(=O)N[C@@H](CCCCN)C(N)=O)[C@@H](C)CC" . Its MIC was > 14.3 µM
